- TARGET DESC: human TRPM5 ion channel (Homo sapiens, UniProt Q9NZQ8)
- Sequence (Q9NZQ8 1-1165): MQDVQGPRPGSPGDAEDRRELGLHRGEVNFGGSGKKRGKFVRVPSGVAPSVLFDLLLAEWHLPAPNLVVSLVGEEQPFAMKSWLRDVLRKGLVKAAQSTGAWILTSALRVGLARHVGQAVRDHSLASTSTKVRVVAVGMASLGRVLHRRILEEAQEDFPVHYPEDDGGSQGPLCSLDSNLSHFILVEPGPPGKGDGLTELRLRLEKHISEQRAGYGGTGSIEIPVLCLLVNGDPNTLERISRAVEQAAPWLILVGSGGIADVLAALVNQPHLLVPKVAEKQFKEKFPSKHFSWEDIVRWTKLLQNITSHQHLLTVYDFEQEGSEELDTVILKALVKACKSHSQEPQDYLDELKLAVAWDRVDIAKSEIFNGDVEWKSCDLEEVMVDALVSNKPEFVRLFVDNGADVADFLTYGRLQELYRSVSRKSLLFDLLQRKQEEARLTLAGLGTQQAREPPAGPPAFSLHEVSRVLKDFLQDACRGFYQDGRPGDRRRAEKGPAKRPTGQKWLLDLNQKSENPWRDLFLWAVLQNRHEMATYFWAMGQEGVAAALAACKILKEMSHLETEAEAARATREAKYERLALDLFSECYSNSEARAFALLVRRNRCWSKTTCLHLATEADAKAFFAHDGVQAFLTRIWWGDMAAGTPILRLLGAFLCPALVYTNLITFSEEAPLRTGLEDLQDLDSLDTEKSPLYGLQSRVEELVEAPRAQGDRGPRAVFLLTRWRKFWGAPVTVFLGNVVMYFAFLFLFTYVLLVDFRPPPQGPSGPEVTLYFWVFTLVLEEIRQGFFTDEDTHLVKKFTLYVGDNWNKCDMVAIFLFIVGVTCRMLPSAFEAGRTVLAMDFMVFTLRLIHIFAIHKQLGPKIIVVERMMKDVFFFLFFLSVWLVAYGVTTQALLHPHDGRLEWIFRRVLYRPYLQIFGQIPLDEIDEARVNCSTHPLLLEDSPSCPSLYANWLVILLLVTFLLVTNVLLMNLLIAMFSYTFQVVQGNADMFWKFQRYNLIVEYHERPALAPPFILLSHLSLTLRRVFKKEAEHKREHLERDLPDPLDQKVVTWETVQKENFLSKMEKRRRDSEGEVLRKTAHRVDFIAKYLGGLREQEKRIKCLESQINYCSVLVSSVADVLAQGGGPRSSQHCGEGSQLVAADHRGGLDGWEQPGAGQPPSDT
- MEASUREMENT DESCRIPTION: FLIPR-based assay for membrane potential and calcium mobilization (TRPM5 inhibiting activity)
- COND: live cells, 30° C., read-out: hTrpM5 IC50
- Procedure: The activity of compounds of the present invention on human TRPM5 ion channel was measured using the FLIPR-based (fluorescent imaging plate reader) assay for membrane potential and calcium mobilization described in U.S. Patent Application Publication No. 2008/0249189 A1 in live cells, wherein the assay is performed at 30° C. Determinations of affinity and efficacy were derived from measurements of TRPM5 activity over a range of compound concentrations. […]
REPORTED ENDPOINT: IC50 (nM)

Solved cases below.
Cc1cc(/C=N/NC(=O)CCn2cc(C)c3c(C)cccc32)cc2cccnc12: 5
COc1cc(/C=N/NC(=O)CCn2cc(C)c3c(C)cccc32)ccc1OCc1ccncc1: 46
COc1cc(/C=N/NC(=O)CCn2cc(C)c3c(C)cccc32)ccc1OCc1cnccn1: 60
COc1ccc(/C=N/NC(=O)CCn2cc(C)c3cccnc32)cc1OC: 680
O=C(N/N=C/c1cc(Cl)c2ncccc2c1)[C@@H]1C[C@H]1c1ccccc1 (relative stereo): 340

I: Cc1cc(C=NNC(=O)C2CC2c2ccccc2)cc2cccnc12 (single isomer, unassigned) [11 (E2)]
II: Cc1cn(CCC(=O)N/N=C/c2ccc3ncccc3n2)c2ccccc12
III: COc1ccc(/C=N/NC(=O)CCn2cc(Cl)c3c(C)cccc32)cc1OC
IV: COc1ccc(/C=N/NC(=O)CCn2cnc3c(C)cccc32)cc1OC
Ask: Which order do these items take when sorted by rising IC50? List them. Return the labels ranked in the requested order, please.
Result: III, I, II, IV

A: COc1ccc(/C=N/NC(=O)NCCc2ccc(Cl)cc2)cc1OC
B: O=C(N/N=C/c1cc(F)c2ncccc2c1)C1CC1c1ccccc1 (centres unmarked)
C: COc1ccc(/C=N/NC(=O)CCc2cnc3ccccc3c2)cc1OC
Ask: Which order do these items take when sorted by rising IC50? List them. Return the labels ranked in the requested order, please.
Result: A, B, C

I: Cc1cc(/C=N/NC(=O)C2CC2c2ccccc2)cc2cccnc12 (racemic)
II: COc1ccc(/C=N/NC(=O)[C@@H]2C[C@H]2c2cccc(C(F)(F)F)c2)cc1OC (relative stereo)
Ask: Larger number for IC50: I , or II ? # answer = label of selected item
Result: I
